Source listed as PubChem BioAssay (NCI).

Test system: T-47D breast
procedure-details: NCI-60 one-dose screen, 48 h
experimental-parameters: 10 µM unless noted
Experimental: Growth inhibition of the T-47D human tumor cell line is measured as a screen for anti-cancer activity. Cells are grown in 96 well plates and exposed to the test compound for 48 hours. Compounds are tested at a single concentration, which is 10^-5 M for most compounds. The reported endpoint is percent growth (GI% or GIPRCNT), where numbers from 0 - 100% represent growth inhibition, and numbers from -100% - 0 represent cell death. For example, a value of 40 represents 60% growth inhibition. […]
About 83,000 compounds went through this panel and 20% of them were active in at least one assay; those are over-represented in the sample as a whole. Activity calls are given as the source filed them. Rule for the calls: active = growth percent below 10; inactive = the rest.
Choose the fitting class; nothing outside active, inactive is accepted.

Check out these entries, answers already filled in.
- compound: "Nc1ncnc2c1N=C(c1ccc3c(c1)OCO3)CC(c1cccc(Nc3ccnc4cc(C(F)(F)F)ccc34)c1)N2 (centres undefined)"
  assigned-label: "inactive"
- compound: "CN1CCN(CCOc2ccc(-c3cnc4c(-c5ccc(F)cc5)cnn4c3)cc2)CC1"
  assigned-label: "inactive"
- compound: "N#C/C(=C\\c1ccc([N+](=O)[O-])cc1)n1nnc2cc(F)c(F)cc21"
  assigned-label: "active"

Req: Recorded test call requested for "COc1ccc(C(=O)/C=C/c2ccc(N3CCCCC3)cc2)cc1OC"
Resp: inactive
